Exercise: for every item that follows, state its recorded melting point.

Need melting point of COc1cccc2c(=O)c(-c3cccc(C(F)(F)F)c3F)nn(CCCS(C)(=O)=O)c12 , thanks.
138 to 139 °C

Now the same for CS(=O)(=O)NCCCn1nc(-c2cccc(C(F)(F)F)c2F)c(=O)c2ccccc21
149 to 152 °C

Now the same for COc1cccc2c(=O)c(-c3cccc(Cl)c3Cl)nn(CCCNS(=O)(=O)N(C)C)c12
62 to 65 °C

Now the same for CCSCCn1nc(-c2cccc(Cl)c2Cl)c(=O)c2ccc(Cl)cc21
75 to 77 °C

Now the same for CS(=O)(=O)NCCCn1nc(-c2cccc(C(F)(F)F)c2F)c(=O)c2ccc(C(F)(F)F)cc21
128 to 130 °C

Now the same for COc1ccc(F)cc1-c1nn(CCCC(F)(F)F)c2ccccc2c1=O
118 to 121 °C

Now the same for CCCCCn1nc(-c2cccc(C(F)(F)F)c2)c(=O)c2ccccc21
53 to 55 °C

Now the same for CCCCCn1nc(-c2cccc(C(F)(F)F)c2Cl)c(=O)c2cccc(OC)c21
90 to 91 °C

Now the same for CS(=O)(=O)NCCCn1nc(-c2cccc(Cl)c2Cl)c(=O)c2ccc(C(F)(F)F)cc21
80 to 83 °C

----------
Exercise: for every item that follows, state its recorded melting point.

Need melting point of CC[S+]([O-])CCn1nc(-c2cccc(C(F)(F)F)c2F)c(=O)c2cccc(OC)c21 (centres unmarked) [Compound 30] , thanks.
99 to 101 °C

Now the same for COc1cccc2c(=O)c(-c3cccc(F)c3C(F)(F)F)nn(CCCNS(C)(=O)=O)c12 [Compound 20]
66 to 68 °C

Now the same for CC[S+]([O-])CCn1nc(-c2cccc(Cl)c2Cl)c(=O)c2ccc(Cl)cc21 (centres unmarked)
75 to 77 °C

Now the same for CCS(=O)(=O)CCn1nc(-c2cccc(Cl)c2Cl)c(=O)c2ccc(Cl)cc21
76 to 79 °C

Now the same for COc1cccc2c(=O)c(-c3cccc(C(F)(F)F)c3F)nn(CCNS(C)(=O)=O)c12 [Compound 55]
145 to 146 °C

Now the same for COc1cccc2c(=O)c(-c3cccc(C(F)(F)F)c3Cl)nn(CCCNS(C)(=O)=O)c12 [Compound 19]
95 to 98 °C

Now the same for COc1cccc2c(=O)c(-c3cccc(C(F)(F)F)c3F)nn(CCCNS(=O)(=O)C(F)(F)F)c12 [Compound 36]
127 to 130 °C

Now the same for COc1cccc2c(=O)c(-c3cccc(C(F)(F)F)c3F)nn(CCCNC(=O)C(F)(F)F)c12 [Compound 37]
51 to 53 °C

----------
MEASURED_PROPERTY: melting point

Need melting point of O=c1c(-c2cccc(C(F)(F)F)c2Cl)nn(CCCCC(F)(F)F)c2cc(Cl)ccc12 , thanks.
137 to 138 °C

Now the same for CCS(=O)(=O)CCn1nc(-c2cccc(C(F)(F)F)c2F)c(=O)c2cccc(OC)c21
138 to 139 °C

Now the same for O=c1c(-c2cccc(C(F)(F)F)c2)nn(CCCCC(F)(F)F)c2ccccc12
80 to 81 °C

----------
MEASURED_PROPERTY: melting point

Need melting point of CSCCCn1nc(-c2cccc(C(F)(F)F)c2F)c(=O)c2ccccc21 , thanks.
80 to 83 °C

Now the same for CCSCCn1nc(-c2cccc(C(F)(F)F)c2F)c(=O)c2ccc(Cl)cc21
117 to 119 °C

Now the same for CCSCCn1nc(-c2cccc(C(F)(F)F)c2F)c(=O)c2cccc(OC)c21
73 to 75 °C

Now the same for CCOCCn1nc(-c2cccc(Cl)c2Cl)c(=O)c2cccc(OC)c21
134 to 135 °C

Now the same for O=c1c(-c2cccc(C(F)(F)F)c2F)nn(CCCCC(F)(F)F)c2ccccc12
118 to 120 °C

Now the same for CCS(=O)(=O)CCn1nc(-c2cccc(OC(F)(F)F)c2)c(=O)c2cccc(OC)c21
130 to 132 °C

Now the same for CC[S+]([O-])CCn1nc(-c2cccc(Cl)c2Cl)c(=O)c2cccc(OC)c21 (stereo not drawn)
128 to 130 °C

Now the same for COc1cccc2c(=O)c(-c3cccc(Cl)c3Cl)nn(CCCN(C)S(C)(=O)=O)c12
179 to 181 °C

Now the same for CCCCCn1nc(-c2cccc(C(F)(F)F)c2F)c(=O)c2ccccc21
78 to 80 °C

----------
MEASURED_PROPERTY: melting point

Need melting point of CCSCCn1nc(-c2cccc(OC(F)(F)F)c2)c(=O)c2cccc(OC)c21 , thanks.
86 to 89 °C

Now the same for COc1cccc2c(=O)c(-c3cccc(C(F)(F)F)c3F)nn(CCCNS(C)(=O)=O)c12
62 to 64 °C

Now the same for COc1cccc2c(=O)c(-c3cccc(Cl)c3Cl)nn(CCCNS(C)(=O)=O)c12
66 to 68 °C

Now the same for COc1cccc2c(=O)c(-c3cccc(OC(F)(F)F)c3)nn(CCCNS(C)(=O)=O)c12
98 to 101 °C

Now the same for O=c1c(-c2cccc(C(F)(F)F)c2F)nn(CCCCF)c2ccccc12
91 to 93 °C

----------
Exercise: for every item that follows, state its recorded melting point.

Need melting point of O=c1c(-c2cccc(C(F)(F)F)c2F)nn(CCCC(F)(F)F)c2ccccc12 , thanks.
96 to 99 °C

Now the same for CS(=O)(=O)NCCCn1nc(-c2cccc(C(F)(F)F)c2F)c(=O)c2ccc(Cl)cc21
155 to 157 °C

Now the same for CCCCCn1nc(-c2cccc(C(F)(F)F)c2F)c(=O)c2cccc(OC)c21
82 to 84 °C

Now the same for CCCCCn1nc(-c2cccc(OC(F)(F)F)c2)c(=O)c2cccc(OC)c21
50 to 52 °C

Now the same for CCSCCn1nc(-c2cccc(OC(F)(F)F)c2)c(=O)c2ccc(Cl)cc21
66 to 68 °C
